For each record, write down the corresponding TGI.
Tested on: MOLT-4 leukemia
Assay: NCI tumour cell line growth inhibition, 48 h
Supply the numeric figure in µM, leaving out any unit text.

Report TGI for CC(=O)C1=C(O)CC2CC3c4[nH]c5ccccc5c4CCN3CC2C1 (centres undefined) please.
70.6

Another compound to check: COc1ccc2nc(-c3ccc(O)cc3)sc2c1
78.3

* * *

System: HOP-92 NSCLC
Test: NCI tumour cell line growth inhibition, 48 h; in the data active = GI50 below about 0.43 µM; inactive = the rest
Please answer using one outcome listed in active, inactive

Give the logged outcome of this assay for the following compound: COc1cc2c(cc1OCCCC(=O)Nc1ccc3ccc4cccc5ccc1c3c45)N=C[C@@H]1CCCN1C2=O
active

Another compound to check: Cc1cnc(C(=O)Nc2nc3ccc(S(=O)(=O)Nc4ccc(C5(C(F)(F)F)CC5)cc4)cc3[nH]2)cn1
active

Another compound to check: C=C1CC2(OC1=O)C(=O)Nc1ccccc12 (stereo not given)
inactive

Another compound to check: CCNC(=O)O[C@H]1CN[C@H](C#Cc2cc3ncnc(Nc4ccc(OCc5cccc(F)c5)c(Cl)c4)c3s2)C1
inactive

Another compound to check: O=c1c(-c2ccccc2)coc2cc(OC/C(=N/O)c3ccccc3)ccc12
inactive

* * *

Test system: UACC-62 melanoma
Assay: NCI tumour cell line growth inhibition, 48 h
For each record, write down the corresponding TGI.

Report TGI for NC(N)=NS(=O)(=O)c1ccc(Nc2c3ccccc3nc3c(C(=O)Nc4ccc(S(N)(=O)=O)cc4)cccc23)cc1 please.
> 100 µM

Another compound to check: CC(=O)Nc1c(C)cc2c(nc3n2CCC3O)c1[N+](=O)[O-] (stereo not drawn)
> 100 µM

Another compound to check: O=C(O)CN1C(=O)C(Cc2ccc(O)cc2)N=C(c2cccc(O)c2)c2ccccc21 (stereo not drawn)
> 100 µM

* * *

Tested on: MDA-N
Assay: NCI tumour cell line growth inhibition, 48 h
For each record, write down the corresponding TGI.

Report TGI for CN(Cc1cc(C(C)(C)C)cc(Br)c1O)Cc1cc(C(C)(C)C)cc(Br)c1O please.
15.9 µM

Another compound to check: N#C/C(N)=C(\C#N)NC(=O)C(=O)N/C(C#N)=C(\N)C#N
> 100 µM

Another compound to check: Cc1ccc(S(=O)(=O)NNCNC(=O)c2ccccc2)cc1
> 100 µM

Another compound to check: BrC(c1cccc2ccccc12)c1cccc2ccccc12
32.6 µM

Another compound to check: CC(=O)Nc1c(C)cc2c(nc3n2CCC3O)c1[N+](=O)[O-] (stereo not drawn)
> 100 µM

Another compound to check: CCC(=O)Nc1ccc(N2C(=O)C(Cl)C2c2ccc(SC)cc2)cc1 (stereo not drawn)
> 100 µM

Another compound to check: CCOC(=O)C(SCCO)C(C(=O)OCC)n1ccc(=O)[nH]c1=O (stereo not drawn)
97.8 µM

Another compound to check: COC(=O)C(CCSC)NC(=O)Cc1ccc(C(=O)c2ccccc2)cc1 (stereo not drawn)
35.1 µM

Another compound to check: CC(=O)OCC1OC(n2c(-c3ccc(C)cc3)cc(-c3ccccc3)c(C#N)c2=S)C(OC(C)=O)C(OC(C)=O)C1OC(C)=O (stereo not drawn)
> 100 µM

Another compound to check: Cc1cc(S(=O)(=O)Nc2nc3ccccc3c(=O)n2N)c(S)cc1Cl
> 100 µM

Another compound to check: OCCNCNc1nc(NCNCCO)nc(N(CNCCO)CNCCO)n1
38.4 µM

Another compound to check: Oc1ccc(-c2nc3ccc(Cl)cc3s2)cc1
37.6 µM

Another compound to check: O=C(Nc1nc(C23CC4CC(CC(C4)C2)C3)cs1)c1cc2ccccc2oc1=O
> 100 µM

Another compound to check: O=C1c2ccccc2C(=O)N1CC(O)COc1cccc2ccccc12 (stereo not drawn)
> 100 µM

Another compound to check: COc1cc(/C=c2\sc3n(c2=O)C(c2ccc(Cl)cc2)C2=C(CCCC2C)N=3)cc(OC)c1OC (stereo not drawn)
> 100 µM

Another compound to check: C=CC(Cl)(CBr)CCC(Br)C(C)(C)Cl (stereo not drawn)
32.4 µM

Another compound to check: Cc1nc2c(=O)n(C)ncc2[nH]1
> 100 µM

Another compound to check: C=C(C)[C@@H]1CCC2=C[C@H](OC2=O)[C@@]2(C)C[C@@H]2C2=CC(C)=C(O2)[C@H]1O
> 75 µM

Another compound to check: COc1cc(CNNC(N)=S)cc(OC)c1OC
> 100 µM

Another compound to check: CCOC(=O)c1c(N2CCOCC2)[nH]c(=O)c(C(c2ccco2)c2c(O)c(C(=O)OCC)c(N3CCOCC3)[nH]c2=O)c1O
> 100 µM

Another compound to check: O=C(O)C1CC(O)CN1 (stereo not drawn)
> 100 µM

Another compound to check: CCCCCCCCCCCCC(O)[C@H]1CC[C@H](C(O)CCCCCC(=O)CCCCC2CC(C(C)=O)C(=O)O2)O1 (stereo partly drawn)
23.2 µM

Another compound to check: CC(=O)O[C@H]1[C@H](OC(=O)CC(C)(O)CC(=O)O)C[C@]2(C)C3=C(CCC2C1(C)C)[C@]1(C)CC[C@H]([C@H]2CC[C@H](C(C)(C)O)OC2O)[C@@]1(C)[C@@H](O)C3 (stereo partly drawn)
34.3 µM

Another compound to check: COc1ccc2nc(-c3ccc(O)cc3)sc2c1
50.8 µM

Another compound to check: CCCCCCCc1cc2c3c(nc4ccccc42)C(=O)c2cccnc2-c3n1
9.12 µM

Another compound to check: Cn1c2ccccc2c(=O)c2cccc(C(=O)NC(CCC(N)=O)C(=O)O)c21 (stereo not drawn)
> 100 µM

Another compound to check: C=C1CCC([N+](=O)[O-])[C@](C)(N=O)CC[C@@H]2C1CC2(C)C (stereo partly drawn)
> 100 µM

Another compound to check: CO/N=C(\C)CCC#Cc1ccccc1C(=O)OC
> 10 µM

* * *

For each record, write down the corresponding TGI.
Test system: EKVX NSCLC
Experiment: NCI tumour cell line growth inhibition, 48 h

Report TGI for COc1cc(C(O)(CC#N)c2cc3c(cc2Br)OCO3)cc(OC)c1OC (centres undefined) please.
> 100 µM

Another compound to check: O=C(c1ccccc1)c1cn(/N=C\c2ccccc2)c(=O)nc1-c1ccccc1
> 100 µM

Another compound to check: CC1(C)CCC[C@]2(C)[C@H]3[C@H](C#N)c4cc(O)c(O)cc4O[C@@]3(C)CC[C@@H]12
> 10 µM

Another compound to check: N#CC1CC2(CCN1C(=O)c1ccccc1)OCCO2 (centres undefined)
> 100 µM

Another compound to check: COC(=O)C1(C)C=CC(=O)C2(C)C1C(O)C1OC3CC(c4ccoc4)C(C)=C3C1(C)C2CC(=O)O (centres undefined)
> 100 µM

Another compound to check: CN(Cc1cc(C(C)(C)C)cc(Br)c1O)Cc1cc(C(C)(C)C)cc(Br)c1O
12.7 µM

Another compound to check: CN(C)CC/[N+]([O-])=C(/c1ccccc1)C12CC3CC(CC(C3)C1)C2
38.1 µM

Another compound to check: CC(C)/C(Cl)=N\OC(=O)Nc1cccc(Cl)c1
31.7 µM

Another compound to check: COc1cccc(NC(=O)/C(Cc2nc3ccccc3nc2C)=N/NC(=O)C[n+]2ccccc2)c1
> 100 µM

Another compound to check: O=C1CCc2c(sc3[nH]c(=S)n(Cc4ccc(Cl)cc4)c(=O)c23)C1
> 100 µM

Another compound to check: C/C(=N\NC(=S)NCCCNC(=S)N/N=C(\C)c1ccccn1)c1ccccn1
> 63.9 µM

Another compound to check: COc1ccc(-c2ccc(-c3ccc(C(=N)N)o3)o2)cc1
14.5 µM

Another compound to check: N#C/C(N)=C(\C#N)NC(=O)C(=O)N/C(C#N)=C(\N)C#N
> 100 µM

Another compound to check: Cc1cccc(NC(=O)c2cccc([N+](=O)[O-])c2O)c1C
> 100 µM

Another compound to check: Cn1cc(C(=O)C[n+]2ccccc2)c2ccccc21
88.3 µM

Another compound to check: COc1cc(-c2nc(SCCC(C)C)nc(Nc3ccc(S(N)(=O)=O)cc3)c2C#N)cc(OC)c1OC
> 100 µM

Another compound to check: O=C1CC(c2ccccc2)n2cccc21 (centres undefined)
> 100 µM

Another compound to check: O=C1Oc2cc(O)cc(/C=C/c3ccc(O)cc3)c2[C@@]12c1c(O)cc(O)cc1OC2c1cccc(O)c1 (some centres undefined)
> 100 µM

Another compound to check: CC(=O)OCC1OC(n2c(-c3ccc(C)cc3)cc(-c3ccccc3)c(C#N)c2=O)C(OC(C)=O)C(OC(C)=O)C1OC(C)=O (centres undefined)
> 100 µM

* * *

Test system: A549 NSCLC
Assay: NCI tumour cell line growth inhibition, 48 h
For each record, write down the corresponding TGI.

Report TGI for Cc1ccc(S(=O)(=O)N2CCCSCC2)cc1 please.
> 100 µM

Another molecule to check: Cc1cc(=O)oc2c(CNC(Cc3ccccc3)C(=O)O)c(O)ccc12 (stereo not drawn)
> 100 µM

Another molecule to check: Oc1ccc2oc3ncc(Br)c(-c4ccccc4)c3c2c1
> 100 µM
